system: OVCAR-3 ovarian; assay: NCI tumour cell line growth inhibition, 48 h
QUANTITY: TGI

COMPOUND	SYSTEM_NAME	QUANTITY	DATA_VALUE
O=[N+]([O-])c1ccc(S[C@@H]2[C@H]3c4c(-c5ccccc5)[nH]c(-c5ccccc5)c4[C@@H]2C[C@H]3Cl)cc1	OVCAR-3 ovarian	TGI	35.8 µM
O=C(CSCC(=O)N/N=C/c1cccs1)N/N=C/c1cccs1	OVCAR-3 ovarian	TGI	> 100 µM
CCCNCCCC(NC(C)=O)C(=O)NCc1ccccc1 (stereo not given)	OVCAR-3 ovarian	TGI	> 100 µM
Cc1ccc(C2=NOC(=O)[C@@H]3CCCC[C@@H]23)cc1	OVCAR-3 ovarian	TGI	> 100 µM
CC(=O)O[C@@H]1C[C@@]23C[C@@]24CC[C@H](OC2OCC(O)C(O)C2O)C(C)(C)[C@@H]4CC=C3[C@]2(C)C[C@@H]3OC4(C[C@@H](C)[C@@H]3[C@@]12C)OC(O)[C@@]1(C)O[C@@H]41 (stereo not given in full)	OVCAR-3 ovarian	TGI	34.5 µM
CC1(C)OCC(C(O)C2OC(C)(C)OC2C=O)O1 (stereo not given)	OVCAR-3 ovarian	TGI	> 100 µM
O=C(/C=C/C12c3ccccc3C(c3ccccc31)C1C(=O)N(c3ccccc3)C(=O)C12)c1ccccc1 (stereo not given)	OVCAR-3 ovarian	TGI	7.09 µM
O=C(Nc1ccc(F)cc1)c1ccc(NC2=C(Cl)C(=O)N(Cc3ccccc3)C2=O)cc1	OVCAR-3 ovarian	TGI	15.3 µM
COc1ccccc1N=C(N)N/N=C/c1c[nH]c2ccccc12	OVCAR-3 ovarian	TGI	25.7 µM
Clc1ccc(N2N=C(c3cccc(Nc4ccncc4)c3)CC2c2ccc3c(c2)OCO3)cc1 (stereo not given)	OVCAR-3 ovarian	TGI	3.07 µM
CSC(CC(=O)O)C(=O)O (stereo not given)	OVCAR-3 ovarian	TGI	> 100 µM
CC(C)C1(O)C(c2ccccc2)=C(c2ccccc2)C(c2ccccc2)=C1c1ccccc1	OVCAR-3 ovarian	TGI	27.8 µM
Cc1cc(=O)n2nc(SCc3ccccc3)sc2n1	OVCAR-3 ovarian	TGI	> 100 µM
Cc1nc2c3c(ncn2n1)Oc1c(c(-c2ccccc2)nn1-c1ccccc1)C3c1ccc(Cl)cc1 (stereo not given)	OVCAR-3 ovarian	TGI	> 100 µM
COc1ccc(-c2cc(=O)c3c(C)cc(C)nc3[nH]2)cc1	OVCAR-3 ovarian	TGI	> 100 µM
COc1ccc(NC(=O)C(=O)Cc2nc3ccc([N+](=O)[O-])cc3[nH]c2=O)c(OC)c1	OVCAR-3 ovarian	TGI	> 100 µM
CN(C)c1ccc([O-])cc1.CN(C)c1ccc([O-])cc1.CN(C)c1ccc([O-])cc1.CN(C)c1ccc([O-])cc1.[Ti+4]	OVCAR-3 ovarian	TGI	> 100 µM
CC1(C)C(=O)C(C)(C)C1=NN	OVCAR-3 ovarian	TGI	> 100 µM
C/C(=N\O)c1cccc(Nc2cc(-n3ccnn3)c3ccccc3n2)c1	OVCAR-3 ovarian	TGI	55.8 µM
C=C(CCC(C)C1CCC2C3=C(C(=O)CC21C)C1(C)CCC(=O)[C@@H](C)C1CC3=O)C(C)C(=O)O (stereo not given in full)	OVCAR-3 ovarian	TGI	> 100 µM

###

tested on: OVCAR-5 ovarian; experiment: NCI tumour cell line growth inhibition, 48 h

COMPOUND	TGI
CCOC(=O)c1c(N2CCCC2)ncn(-c2ccccc2)c1=S	> 100 µM
CC[N+](C)(CC)CCC(O)(c1ccccc1)c1ccccc1	> 100 µM
N/N=C1/C2CN3CCN(C2)CC1(c1ccc([N+](=O)[O-])cc1)C3	> 100 µM
CCc1cccc(C(C)C)c1NC(=O)C(=O)CC(=O)c1c(C)n([O-])c2ccccc2[n+]1=O	> 100 µM
O=Nc1c(-c2c(O)[nH]c3ccc([N+](=O)[O-])cc23)[nH]c2ccc(O)cc12	51.1 µM
OC1c2ccccc2C2(O)C1C(c1ccccc1)C(c1ccccc1)C2(O)c1ccccc1 (stereo not drawn)	26.7 µM
Oc1cc(O)c(Oc2cccc(O)c2O)c(O)c1	> 100 µM
Cc1cc(/C=C\c2ccc3ccccc3[n+]2C)c(O)c2ncccc12	6.19 µM
